Tested system: T1, Full length Mouse TfR on CHO cells (mouse, UniProt Q62351 1-763)
T1 construct: also called CHO + muTfR
T1 sequence (Q62351 whole entry): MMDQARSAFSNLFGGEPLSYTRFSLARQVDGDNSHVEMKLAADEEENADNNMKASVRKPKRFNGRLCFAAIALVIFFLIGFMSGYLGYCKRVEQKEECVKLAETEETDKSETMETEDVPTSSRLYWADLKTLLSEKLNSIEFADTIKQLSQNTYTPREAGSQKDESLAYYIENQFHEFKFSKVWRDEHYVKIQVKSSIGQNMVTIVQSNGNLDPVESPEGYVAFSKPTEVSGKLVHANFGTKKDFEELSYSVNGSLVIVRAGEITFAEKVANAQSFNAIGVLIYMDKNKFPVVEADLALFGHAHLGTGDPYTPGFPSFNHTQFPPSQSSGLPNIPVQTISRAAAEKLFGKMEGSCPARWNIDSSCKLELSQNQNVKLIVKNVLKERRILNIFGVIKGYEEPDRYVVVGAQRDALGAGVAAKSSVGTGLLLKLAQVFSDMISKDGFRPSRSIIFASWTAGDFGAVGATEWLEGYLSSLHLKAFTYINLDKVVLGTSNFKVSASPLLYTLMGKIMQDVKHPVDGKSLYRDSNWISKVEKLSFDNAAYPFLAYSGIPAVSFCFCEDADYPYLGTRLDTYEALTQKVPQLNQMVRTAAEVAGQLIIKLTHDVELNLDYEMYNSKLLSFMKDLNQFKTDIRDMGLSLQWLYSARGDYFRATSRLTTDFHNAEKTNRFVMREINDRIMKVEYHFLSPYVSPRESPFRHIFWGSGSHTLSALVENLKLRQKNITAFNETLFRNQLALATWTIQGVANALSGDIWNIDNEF
Experiment description: FACS, CHO+muTfR
Readout kind: binding result

Binder	Readout kind	Reported result
TfR24 (mouse hybridoma antibody) (antibody, V domains shown, mouse IgG in hybridoma supernatant) VH: QVQLQQSGPELVKPGTSVKMSCKASGYTFTSYYIHWVKQRPGQGLEWIGWIYPGDDNTHYNENFKGKTTLTADKSSSTAYMLLSSLTSEDSAIYFCARDYYGRFAYWGQGTLVTVSA VL: DIVMTQSPSSLTVTAGERVTMSCKSSQSLLNSGNQKNYLTWFQQKPGQPPKLLIYWASTRESGVPDRFTGSGSGTDFTVTISSVQAEDLAVYYCQNDYGYPLTFGAGTKLELK	binding result	no binding
TfR13 (mouse hybridoma antibody) (antibody, V domains shown, mouse IgG in hybridoma supernatant) VH: DVKLVESGGGLVKPGGSLKLSCAASGFTFSSYTMSWVRQTPEKRLEWVATISSGGSYTYFPDSVKGRFTISRDNAKNTLYLQMSSLKSEDTAIYYCTRAHYYAYDYWGQGTTLTVSS VL: DILLTQSPAILSVSPGERVSFSCRASQSIGTSIHWYQQRTNGSPRLLIKYASGSISGIPSRFSGSGSGTDFTLSINSVESEDIADYYCQQSNSWPTSTFGAGTKLELK	binding result	no binding
TfR25 (mouse hybridoma antibody) (antibody, V domains shown, mouse IgG in hybridoma supernatant) VH: QVQLQQSGPELVKPGTSVKMSCKASGYTFTNYYIHWMKQRPGQGLEWIGWIYPGDGNTHYNERFKGKTTLTADKSSSTVYMFLTSLTSEDSAIYFCAKDKDMPGMDYWGQGTSVTVSS VL: DMVMTQSPSSLTVTAGEKVTMSCKSSQSLFNSENQKNYLTWYQQKPGQPPKLLISWASTRESGVPDRFTGSGSGTDFTLTINSVQAEDLAVYYCQNDYSYPLTFGAGTKLELK	binding result	no binding
